assay: Cytotoxicity against human MT4 cells assessed as decrease in cell viability after 5 days by MTT assay; format: cell-based
observable: CC50 at 120 h

Cc1cn([C@H]2C[C@H](N=[N+]=[N-])[C@@H](CO)O2)c(=O)[nH]c1=O ... > 93.6 µM
Cc1cc(C#N)cc(C)c1Oc1cc(Nc2ccc(C#N)cc2)ncn1 ... > 292 µM
CC(C)Nc1cccnc1N1CCN(C(=O)c2cc3cc(NS(C)(=O)=O)ccc3[nH]2)CC1 ... > 4.39 µM
Cc1cc(C)c(Nc2cccc(Nc3ccc(C#N)cc3)c2)c(C)c1 ... ≥ 220 µM
Cc1ccnc2c1NC(=O)c1cccnc1N2C1CC1 ... > 15 µM

The measured values listed here are drawn from ChEMBL document CHEMBL2151033.
